Reference for the values: patent US9452980B2

- Assay System: rat TAAR1 (Rattus norvegicus (Rat))
- Assay Method Text: Radioligand binding assay on rat TAAR1
- Particulars: rat TAAR1, HEK-293 membranes, second value of cell mouse/rat; read-out: Ki (μM) rat
Structures can show the parent of a compound that is named as a salt.
Measurement Kind: Ki (µM)

O=C(Nc1ccc(Cl)cc1)Nc1ccc(CCC2CCNC2)cc1 (racemic) [Example 116, hydrochloride]
0.0014
O=C(Nc1ccc(CCC2CCCNC2)cc1)c1ccc(Cl)cc1 (racemic) [Example 110, hydrochloride]
0.0375
CC(C(=O)Nc1ccc(C2CCCNC2)cc1)c1cccc(Cl)c1 (racemic) [Example 111]
0.0382
Cc1nc(-c2cnccn2)sc1C(=O)Nc1ccc(C2CNCCO2)cc1 (racemic) [Example 298, hydrochloride]
0.0143
O=C(Nc1ccc(C2CCNC2)cc1)c1ccc(Cl)cn1 (racemic) [Example 42, hydrochloride]
0.0354

1. CCCCc1ccc(NC(=O)Nc2ccc(C3CCNC3)cc2)c(C)c1 (racemic) [Example 1, hydrochloride]
2. O=C(Cc1ccccc1)Nc1ccc(C2CCNC2)cc1 (racemic) [Example 12, hydrochloride]
3. CCc1ccc(C(=O)Nc2ccc(C3CNCCO3)cc2)cc1 (racemic) [Example 198, hydrochloride]
Arrange the 3 compounds from largest to smallest Ki. Put the labels in the requested order and list them out.
2, 1, 3

* * *

- Assay System: rat TAAR1 (Rattus norvegicus (Rat))
- Assay Method Text: Radioligand binding assay on rat TAAR1
- Particulars: rat TAAR1, HEK-293 membranes, second value of cell mouse/rat; read-out: Ki (μM) rat
Counter-ions that a name gives are not always drawn.
Measurement Kind: Ki (µM)

O=C(Nc1ccc(C2CCCNC2)cc1)c1ccc(C(F)(F)F)cn1 (racemic) [Example 138, hydrochloride]
0.0059
O=C(Nc1ccc(C2CCCNC2)cc1)c1ccc(Cl)c(Cl)c1 (racemic) [Example 96, hydrochloride]
0.0067

A. O=C(NCc1ccc([C@@H]2CNCCO2)cc1)c1ccc(Cl)nc1 [Example 315, hydrochloride]
B. Cn1cc(-c2nc(C(=O)Nc3ccc(C4CNCCO4)cc3)cs2)cn1 (racemic) [Example 296, hydrochloride]
Of A and B , whose reported Ki is numerically smaller? Please identify the chosen entry by its label.
A

* * *

- Assay System: UniProtKB Q923Y8
- Assay Method Text: Radioligand binding assay on mouse TAAR1
- Particulars: mouse TAAR1, HEK-293 membranes, first value of cell mouse/rat; read-out: Ki (μM) mouse
Where a name gives a salt, the structure may show the parent alone.
Measurement Kind: Ki (µM)

O=C(Nc1ccc([C@@H]2CCCNC2)cc1)c1ccc(OCC(F)(F)F)nc1 [Example 224, hydrochloride]
0.051

1. O=C(Nc1ccc([C@H]2CNCCCO2)cc1)c1cccc(Cl)c1 [Example 308, hydrochloride]
2. CCc1ccc(C(=O)Nc2ccc(C3CNCCO3)cc2)cc1 (racemic) [Example 198, hydrochloride]
Please let me know which one, 1 or 2 , has a lower measured Ki value. # reply format: chosen label
2
(2: 0.0147 µM, 1: 0.287 µM)

* * *

- Assay System: mouse TAAR1 (Mus musculus (Mouse), UniProt Q923Y8)
- Sequence (Q923Y8 whole entry): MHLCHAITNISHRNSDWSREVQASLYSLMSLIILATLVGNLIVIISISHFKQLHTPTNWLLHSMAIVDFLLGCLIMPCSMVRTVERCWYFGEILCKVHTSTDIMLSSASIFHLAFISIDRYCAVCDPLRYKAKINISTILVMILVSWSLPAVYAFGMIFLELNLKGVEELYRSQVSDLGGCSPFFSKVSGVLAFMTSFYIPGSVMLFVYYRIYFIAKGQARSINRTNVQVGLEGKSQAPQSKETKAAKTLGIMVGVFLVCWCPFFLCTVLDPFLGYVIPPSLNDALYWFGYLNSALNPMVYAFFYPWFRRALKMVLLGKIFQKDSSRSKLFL
- Assay Method Text: Radioligand binding assay on mouse TAAR1
- Particulars: mouse TAAR1, HEK-293 membranes, first value of cell mouse/rat; read-out: Ki (μM) mouse
- Experimental: For the construction of expression plasmids the coding sequences of human, rat and mouse TAAR1 were amplified from genomic DNA essentially as described by Lindemann et al.. The Expand High Fidelity PCR System (Roche Diagnostics) was used with 1.5 mM Mg^2+ and purified PCR products were cloned into pCR2.1-TOPO cloning vector (Invitrogen) following the instructions of the manufacturer. […]
Where a name gives a salt, the structure may show the parent alone.
Measurement Kind: Ki (µM)

Illustrative cases are given below, each with its answer.
O=C(Nc1ccc(Cl)cc1)Nc1ccc(CCC2CCNC2)cc1 (racemic) [Example 116, hydrochloride]
0.0608
O=C(Nc1ccc(C2CCCNC2)cc1)c1ccc(Cl)cc1F (racemic) [Example 100, hydrochloride]
0.0036
O=C(Nc1ccc(C2CNCCO2)cc1)Nc1ccccc1Cl (racemic) [Example 305, hydrochloride]
0.0266
O=C(Nc1ccc(C2CCNCC2)cc1)c1ccc(Cl)cc1 [Example 57, hydrochloride]
0.0055
O=C(Nc1ccc(C2CCCNC2)cc1)c1ccccc1 (racemic) [Example 184, hydrochloride]
0.153
N#Cc1ccc(C(=O)Nc2ccc(C3CNCCO3)cc2)cn1 (racemic) [Example 194]
0.0982

a. CC(C(=O)Nc1ccc(C2CCNC2)cc1)c1cccc(C(=O)c2ccccc2)c1 (racemic) [Example 64]
b. O=C(Nc1ccc(C2CCNC2)cc1)c1ccc(Cl)c(Cl)c1 (racemic) [Example 56, hydrochloride]
c. O=C(Nc1ccc(C2CCNC2)cc1)c1ccc(-n2cccn2)nc1 (racemic) [Example 73, hydrochloride]
d. CSc1cnc(C(=O)Nc2ccc([C@@H]3CCCNC3)cc2)cn1 [Example 257]
e. O=C(Nc1ccc(C2CNCCO2)cc1)c1ccnc(C(F)(F)F)c1 (racemic) [Example 280, hydrochloride]
Write the entries in order, lowest recorded Ki first. Put the labels in the requested order and list them out.
b, c, e, a, d

A. O=C(Nc1ccc([C@@H]2CCCNC2)cc1)c1cc(Cl)nc(Cl)c1 [Example 281, hydrochloride]
B. O=C(NCc1ccc([C@H]2CNCCO2)cc1)c1cccc(Cl)c1 [Example 318, hydrochloride]
C. O=C(Nc1ccc(CCC2CCNC2)cc1)Nc1ccc(Cl)cn1 (racemic) [Example 114, hydrochloride]
D. CC(C(=O)Nc1ccc(C2CCCNC2)cc1)c1cccc(Cl)c1 (racemic) [Example 111]
E. O=C(Nc1ccc(C2CCNC2)cc1)c1ccc(Cl)nc1 (racemic) [Example 43, hydrochloride]
// ranking: key=Ki, reverse=True Labels, requested order.
B, C, D, A, E
(B: 12900 µM, C: 0.0836 µM, D: 0.0349 µM, A: 0.0128 µM, E: 0.0041 µM)

1. O=C(Nc1ccc(C2CCNC2)cc1)OCCCc1ccc(Cl)cc1 (racemic) [Example 128]
2. O=C(Nc1ccc(CCC2CCCN2)cc1)c1ccc(Cl)cc1 (racemic) [Example 142, hydrochloride]
Between these two entries, 1 and 2 , state which has the higher Ki. // caller expects the label of the chosen entry
2

A. COc1ccc(C(=O)Nc2ccc(C3CCNC3)cc2)c(OC)n1 (racemic) [Example 95]
B. O=C(Nc1ccc(CCC2CCCCN2)cc1)c1cnc(Cl)cn1 (racemic) [Example 174, hydrochloride]
Of A and B , whose reported Ki is numerically smaller? Refer to your chosen entry by its label in the reply.
A
(A: 0.0385 µM, B: 0.437 µM)

I. COc1cccc(CC(=O)Nc2ccc(C3CCNC3)cc2)c1 (racemic) [Example 65, hydrochloride]
II. O=C(NCc1ccc([C@@H]2CNCCO2)cc1)c1ccc(OCC(F)(F)F)nc1 [Example 316, hydrochloride]
Which has the higher Ki, I or II ? Pick one; state its label.
II
(II: 0.273 µM, I: 0.125 µM)

* * *

- Assay System: rat TAAR1 (Rattus norvegicus (Rat), UniProt Q923Y9)
- Sequence (Q923Y9 whole entry): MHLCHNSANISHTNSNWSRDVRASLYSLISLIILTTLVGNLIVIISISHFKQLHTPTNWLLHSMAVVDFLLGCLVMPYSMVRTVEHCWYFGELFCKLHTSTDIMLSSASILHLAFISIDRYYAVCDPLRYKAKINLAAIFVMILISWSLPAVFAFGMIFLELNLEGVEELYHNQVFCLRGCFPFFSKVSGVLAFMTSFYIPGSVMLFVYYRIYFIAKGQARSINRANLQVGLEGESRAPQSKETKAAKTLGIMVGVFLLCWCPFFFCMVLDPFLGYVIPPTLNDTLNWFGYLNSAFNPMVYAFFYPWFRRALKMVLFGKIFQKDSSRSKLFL
- Assay Method Text: Radioligand binding assay on rat TAAR1
- Particulars: rat TAAR1, HEK-293 membranes, second value of cell mouse/rat; read-out: Ki (μM) rat
Where a name gives a salt, the structure may show the parent alone.
Measurement Kind: Ki (µM)

Some compounds with known Ki results, for comparison:
O=C(Nc1ccc(C2CNCCO2)cc1)c1ccc(Oc2ccc(C(=O)O)c(Cl)c2)cc1 (racemic) [Example 215, hydrochloride]
2.31
O=C(Nc1ccc([C@@H]2CCCNC2)cc1)c1ccc(Cl)c(Cl)c1 [Example 152, hydrochloride]
0.0003

A. COc1ccc(C(=O)Nc2ccc(C3CNCCO3)cc2)cc1 (racemic) [Example 190, hydrochloride]
B. O=C(Nc1ccc(C2CCNC2)cc1)c1ccc(Cl)cc1F (racemic) [Example 77, hydrochloride]
Lab note: check whether A or B has the lower measured Ki. When you have decided, please share the label of that item.
A
(A: 0.0021 µM, B: 0.0238 µM)

a. O=C(Nc1ccc([C@@H]2CCCNC2)cc1)c1cc(Cl)nc(Cl)c1 [Example 281, hydrochloride]
b. O=C(Nc1ccc(C2CCNC2)cc1)c1ccc(Br)cn1 (racemic) [Example 87, hydrochloride]
Parameter check: reported Ki is higher for which label, a or b ? Identify your selection by its label.
b
(b: 0.017 µM, a: 0.0014 µM)

* * *

- Assay System: rat TAAR1 (Rattus norvegicus (Rat))
- Assay Method Text: Radioligand binding assay on rat TAAR1
- Particulars: read-out: Ki (μM) rat
Where a name gives a salt, the structure may show the parent alone.
Measurement Kind: Ki (µM)
A number alone suffices; assume µM.

O=C(Nc1ccccc1)Nc1ccc(C2CCNC2)cc1 (racemic) [Example 6, hydrochloride]
0.0295
O=C(NCc1ccc([C@H]2CNCCO2)cc1)c1ccc(C(F)(F)F)nc1 [Example 320, hydrochloride]
0.0249
O=C(Nc1ccc([C@@H]2CCCNC2)cc1)c1ccc(OCC(F)(F)F)nc1 [Example 224, hydrochloride]
0.0029
O=C(Nc1ccc([C@H]2CCCNC2)cc1)c1ccc(C(F)(F)F)nc1 [Example 265, hydrochloride]
0.0059
CSc1ccc(C(=O)Nc2ccc(C3CNCCO3)cc2)cc1 (racemic) [Example 216, hydrochloride]
0.0012

Look up Ki: O=C(Nc1ccc([C@@H]2CNCCO2)cc1)c1ccc(Cl)cc1 [Example 143, hydrochloride]
0.0006

What Ki value was documented for this compound, COc1ccc(C(=O)Nc2ccc([C@@H]3CCCNC3)cc2)cc1Cl [Example 203, hydrochloride] ?
0.0014

Field request: Ki | item: O=C(Nc1ccc([C@H]2CNCCO2)cc1)c1cc(Cl)nc(Cl)c1 [Example 271, hydrochloride]
0.004

Could you tell me which Ki is on file for O=C(Nc1ccc([C@@H]2CCCNC2)cc1)c1cnc(Br)cn1 [Example 251, 2,2,2-trifluoroacetate] ?
0.0054

Which Ki reading was recorded for the compound O=C(Nc1ccc([C@@H]2CCCNC2)cc1)c1cccc(C(F)(F)F)c1 [Example 234, hydrochloride] ?
0.001
